test: Apparent solubility in vitro; format: physicochemical; conditions: distilled water, 25 °C, water, thermodynamic from solid
PARAMETER MEASURED: solubility at 2 h
In your response, put the unit directly after the numeric value.

Query: Which solubility at 2 h is listed for C[C@@]12CC[C@@H]3[C@@](CC[C@H]4[C@@]3(C)CCC[C@@]4(C)C(=O)O)(CC1=O)C2 ?
Result: 0.13 µg/mL

----------
assay: Oral pharmacokinetics / bioavailability in rats; type: in vivo; conditions: male, Sprague-Dawley, rat, plasma, 4 mg/kg
PARAMETER MEASURED: Tmax (h)
State the answer as a number, implicitly in h.

Query: Reported Tmax, compound C[C@@]12CC[C@@H]3[C@@](CC[C@H]4[C@@]3(C)CCC[C@@]4(C)C(=O)O)(CC1=O)C2 : ____
Result: 3.01

----------
assay: Apparent solubility in vitro; type: physicochemical; conditions: 25 °C, pH 6.8, aqueous buffer, thermodynamic from solid
PARAMETER MEASURED: solubility at 2 h (µg/mL)
Output spec: scalar in µg/mL, unitless text.

Query: Param item = C[C@@]12CC[C@@H]3[C@@](CC[C@H]4[C@@]3(C)CCC[C@@]4(C)C(=O)O)(CC1=O)C2 ; retrieve measured solubility at 2 h.
Result: 20.1

----------
assay: Oral pharmacokinetics / bioavailability in rats; type: in vivo; conditions: male, Sprague-Dawley, rat, plasma, 4 mg/kg
PARAMETER MEASURED: Cmax (ng/mL)
Give the quantity in ng/mL, number only.

Query: Which value of Cmax has been reported for C[C@@]12CC[C@@H]3[C@@](CC[C@H]4[C@@]3(C)CCC[C@@]4(C)C(=O)O)(CC1=O)C2 in the records?
Result: 61

----------
test: Apparent solubility in vitro; type: physicochemical; conditions: 25 °C, pH 1, simulated gastric fluid, thermodynamic from solid
PARAMETER MEASURED: solubility at 2 h

Query: Need solubility at 2 h, item C[C@@]12CC[C@@H]3[C@@](CC[C@H]4[C@@]3(C)CCC[C@@]4(C)C(=O)O)(CC1=O)C2 [STV, Isosteviol]
Result: < 0.02 µg/mL
